Field: TGI. Provide a value for each of the compounds that follow.
- Test system: IGROV1 ovarian
- assay-info: NCI tumour cell line growth inhibition, 48 h
// return numeric value only (unit: µM, not printed)

Measured TGI, `CCOC(=O)c1cc(C(=O)c2cc(OC)c(OC)c(OC)c2)n2ccc(-c3cc[n+](CC(=O)c4cc(OC)c(OC)c(OC)c4)cc3)cc12` : 5.92

Measured TGI, `C[C@@H](Oc1cc(-c2cnn(C3CCNCC3)c2)cnc1N)c1c(Cl)cc(F)cc1Cl` : 16.7

Measured TGI, `O=C(c1ccc(Nc2nccc(NCCCCNc3ccnc4cc(Cl)ccc34)n2)cc1)N1CCCCC1` : 9.08

Measured TGI, `COC(=O)CNC(=O)CSc1nnc(COc2ccc(Cl)cc2)n1-c1ccccc1` : 54

* * *

- System: SN12C renal
- assay-info: NCI tumour cell line growth inhibition, 48 h
Field: TGI. Provide a value for each of the molecules that follow.
// return numeric value only (unit: µM, not printed)

Measured TGI, `CCOC(=O)CCSC1=CC(=O)c2nc3ccccc3c3ccnc1c23` : 31.8

Measured TGI, `COc1ccc2nc3ccccc3c(NCc3ccccc3)c2c1` : 10.5

Measured TGI, `COc1cc(-c2ccccc2)cn2c1nc1ccccc12` : 46.2

Measured TGI, COC(=O)c1cc2c(cc1C(=O)OC)[C@@]1(C)CCCC(C)(C)C1CC2 (stereo partly specified) : 35.2

Measured TGI, `S=C1Cc2c(-c3ccccc3)cc(-c3ccc(Cl)cc3)nc2-c2ccccc2N1` : 5.26

Measured TGI, COC1C(=O)N(SC)C1c1ccccc1Cl (stereo unspecified) : 47.3

* * *

Field: TGI. Provide a value for each of the molecules that follow.
- System: HOP-62 NSCLC
- assay-info: NCI tumour cell line growth inhibition, 48 h

Here Nc1ncc2c(n1)-c1ccccc1OC2N1CCOCC1 (stereo not drawn) was tested on HOP-62 NSCLC, and its TGI came to > 100 µM

Here N#CC1=C(c2ccccc2)OC2(N)OC(c3ccccc3)=C(C#N)C12C#N (stereo not drawn) was tested on HOP-62 NSCLC, and its TGI came to > 100 µM

Here `COc1cc(OC)nc(-n2c(N)c(C(=O)O)c3ccc([N+](=O)[O-])cc3c2=O)n1` was tested on HOP-62 NSCLC, and its TGI came to > 100 µM

Here CN1CCN(Cc2ccccc2)CC1CC#N (stereo not drawn) was tested on HOP-62 NSCLC, and its TGI came to > 100 µM

Here `CN1C(=O)N(c2nc3ccccc3[nH]2)C(C)(C)C1=O` was tested on HOP-62 NSCLC, and its TGI came to > 100 µM

Here `CC[P+]1(c2ccccc2)CCCCC1` was tested on HOP-62 NSCLC, and its TGI came to > 100 µM

Here C=CCN1C(=O)[C@]2(SC1=S)[C@H](c1cccc(Cl)c1)CN(C)[C@]21C(=O)NC2C=CC(Cl)=C[C@H]21 (stereo partly drawn) was tested on HOP-62 NSCLC, and its TGI came to 16.2 µM

Here `Cc1ccc(S(=O)(=O)NNC(=O)Nc2ccc([N+](=O)[O-])cc2)cc1` was tested on HOP-62 NSCLC, and its TGI came to 95.4 µM

Here `COC(=O)[C@H](C)N(C)C(=O)[C@H](C)N1[C@@H](c2ccccc2)COC1(C)C` was tested on HOP-62 NSCLC, and its TGI came to > 100 µM

Here Cc1ccc(C2C3Cc4ccccc4C3=NN2c2ccc(S(=O)(=O)NC(=O)Nc3ccccc3)cc2)cc1 (stereo not drawn) was tested on HOP-62 NSCLC, and its TGI came to 63 µM

Here Cc1ccc2c(c1)C(O)(c1ccccc1)CCS2 (stereo not drawn) was tested on HOP-62 NSCLC, and its TGI came to > 100 µM

Here `O=C(O)c1[nH]c2c([N+](=O)[O-])cc([N+](=O)[O-])cc2c1C(=O)O` was tested on HOP-62 NSCLC, and its TGI came to > 100 µM

Here O=C(CC1Sc2ccccc2NC1=O)NNc1ccc(F)cc1 (stereo not drawn) was tested on HOP-62 NSCLC, and its TGI came to > 100 µM

Here `O=c1c2ccccc2nc(N/N=C/c2ccc(Cl)cc2)n1-c1ccccc1` was tested on HOP-62 NSCLC, and its TGI came to > 100 µM

Here CC(=O)OCC1=CC2CCC3C(C)(CCC[C@]3(C)COC(C)=O)C23CC[C@H]1C3 (stereo partly drawn) was tested on HOP-62 NSCLC, and its TGI came to > 100 µM

Here `CCOC(=O)c1nc2cc(F)cc(F)c2[nH]c1=O` was tested on HOP-62 NSCLC, and its TGI came to > 100 µM

Here `CCOC(=O)CCn1cnc(N)n1` was tested on HOP-62 NSCLC, and its TGI came to > 100 µM

Here COC(=O)/C(=N\N)C(C(=O)C(=O)Nc1nc(=S)[nH][nH]1)c1nc2ccc([N+](=O)[O-])cc2[nH]c1=O (stereo not drawn) was tested on HOP-62 NSCLC, and its TGI came to > 100 µM

Here `CCN(CC)CCCNc1cc(OC)c(OC)c2cccnc12` was tested on HOP-62 NSCLC, and its TGI came to 21.4 µM

Here O=c1[nH]c(=O)n(C2OC(CO)C(O)C2O)cc1F (stereo not drawn) was tested on HOP-62 NSCLC, and its TGI came to 8.59 µM

Here `CCc1cccc(NC(=O)c2cc(/C=C/c3ccccc3)[nH]c(=S)n2)c1` was tested on HOP-62 NSCLC, and its TGI came to > 100 µM

Here `COC(=O)[C@@H]1[C@H]2CC[C@]3(C)[C@@H](OC(C)=O)CC[C@H]3[C@@H]2CC[C@H]1C(C)=O` was tested on HOP-62 NSCLC, and its TGI came to > 100 µM

Here CCC(C)C(=O)OC1CCC=C2C=CC(C)C(CCC3CC(O)CC(=O)O3)C21 (stereo not drawn) was tested on HOP-62 NSCLC, and its TGI came to > 100 µM

Here `CC(=N\O)/C(C)=N/O.CC(=N\O)/C(C)=N/O.[Fe].[NH2-].c1c[nH]cn1` was tested on HOP-62 NSCLC, and its TGI came to > 100 µM

Here `Cc1cn2c(/C=C3\C(=O)N(C)c4ccc(Cl)cc43)c(C)nc2s1` was tested on HOP-62 NSCLC, and its TGI came to 72 µM

Here CCOC(=O)C1=NNC(C(=O)c2ccccc2)C1c1ccccc1 (stereo not drawn) was tested on HOP-62 NSCLC, and its TGI came to 26 µM

Here `CCSCCCC(=O)O` was tested on HOP-62 NSCLC, and its TGI came to > 100 µM

Here `COc1cc(-c2ccccc2)cn2c1nc1ccccc12` was tested on HOP-62 NSCLC, and its TGI came to 43.6 µM

Here `CCCCNCCCCCNc1cc(OC)cc2cccnc12` was tested on HOP-62 NSCLC, and its TGI came to 30.1 µM

Here `N[C@H]1CCN(c2c(F)cc3c(=O)c(C(=O)O)cn4c3c2Oc2c-4ccc3c2ccc2ccccc23)C1` was tested on HOP-62 NSCLC, and its TGI came to > 100 µM

Here `Cc1cc(S(=O)(=O)NC2=NCC(C)(C)CN2)c(S)cc1Cl` was tested on HOP-62 NSCLC, and its TGI came to > 100 µM

Here `COc1ccc2[nH]c3c(O)c(-c4c(C)cc5c([nH]c6ccc(OC)cc65)c4O)c(C)cc3c2c1` was tested on HOP-62 NSCLC, and its TGI came to 8.35 µM

Here `O=C(CCN1CCCC1)c1ccc(Oc2ccc(F)cc2)cc1` was tested on HOP-62 NSCLC, and its TGI came to > 100 µM

Here `Cc1nn(-c2ccccc2)c2nc(C)n(-c3ccc(Br)cc3)c(=O)c12` was tested on HOP-62 NSCLC, and its TGI came to > 100 µM

Here `c1ccc(/C(=N\Nc2nc3ccccc3s2)c2ccccn2)cc1` was tested on HOP-62 NSCLC, and its TGI came to 97.8 µM

Here `NC(=O)NC(=O)c1cccc(NC(=O)CCl)c1` was tested on HOP-62 NSCLC, and its TGI came to 4.71 µM

Here `COc1ccc2nc3ccccc3c(NCc3ccccc3)c2c1` was tested on HOP-62 NSCLC, and its TGI came to 9.95 µM

Here CC(C)(C)OC(=O)N1Cc2cc3ccccc3nc2C1CO (stereo not drawn) was tested on HOP-62 NSCLC, and its TGI came to > 100 µM

* * *

Field: TGI. Provide a value for each of the compounds that follow.
- Tested on: 786-0 renal
- assay-info: NCI tumour cell line growth inhibition, 48 h

Measured TGI, c1ccc(COC[C@H]2C3OCC([C@H](OCc4ccccc4)[C@H]3OCc3ccccc3)N2Cc2ccccc2)cc1 (stereo not given in full) : > 100 µM

Measured TGI, `C/C(=N/N)c1sc(-c2nc(C)c(/C(C)=N\N)s2)nc1C` : > 100 µM

Measured TGI, COC1OC(Cn2cc([N+](=O)[O-])nc2C)C(O)C(O)C1O (stereo not given) : > 100 µM

Measured TGI, O=c1[nH]c(=O)n(C2CC(O)C(COP(=O)(OCC(Cl)(Cl)Cl)OCC(Cl)(Cl)Cl)O2)cc1F (stereo not given) : > 100 µM

Measured TGI, `Nc1nc(N)c(-c2ccc(Cl)c(Cl)c2)c(CP(Cl)(Cl)(Cl)Br)n1` : > 100 µM

Measured TGI, `C1=Cc2cccc3occ(c23)C=C1` : > 100 µM

Measured TGI, `O=C(CCN1CCCC1)c1ccc(Oc2ccc(F)cc2)cc1` : 31.8 µM

Measured TGI, O=c1[nH]c(=O)n(C2OC(CO)C(O)C2O)cc1F (stereo not given) : 21.1 µM

Measured TGI, CCc1ccccc1NC(=O)C(=O)C(C#N)c1c(Cl)cccc1Cl (stereo not given) : > 100 µM

Measured TGI, CC1OC(CC2C=CCc3c(O)c4c(c(O)c32)C(=O)c2ccccc2C4=O)CC(NC(=O)C(F)(F)F)C1O (stereo not given) : 23.2 µM

Measured TGI, COC(=O)C1=COC2OC3CC1C2C(C)O3 (stereo not given) : > 100 µM

Measured TGI, CCC(C(=O)[C@@H](C)[C@@H](O)[C@H](C)[C@@H]1O[C@@H]([C@@H](CC)C(=O)ONC(=O)c2ccccc2)CC[C@@H]1C)[C@H]1O[C@]2(C=CC(=O)[C@]3(CC[C@@](C)([C@H]4CC[C@](O)(CC)[C@H](C)O4)O3)O2)[C@H](C)C[C@@H]1C (stereo not given in full) : 2.26 µM

Measured TGI, COc1cc(C(=O)OC2CC34CCNC35CC(OC5(OC)C2O)c2cc3c(cc24)OCO3)ccc1O (stereo not given) : > 100 µM

Measured TGI, O=C1C2C3C=C4c5ccccc5N(c5ccccc5)C4([C@@H]2C(=O)N1c1ccc(F)cc1)[C@H]1C(=O)N(c2ccc(F)cc2)C(=O)[C@@H]31 (stereo not given in full) : > 100 µM

Measured TGI, C(=C\c1ccc(OCC2CO2)cc1)/C1=NCOC1 (stereo not given) : 53.4 µM

Measured TGI, `COc1ccc2c(c1)C(=O)c1c-2n(CCCCl)c(=O)c2cc(N)ccc12` : > 100 µM

Measured TGI, Cc1nn(C(=O)c2ccc(Cl)cc2)c2c1C(c1ccc(Cl)cc1)SC(N)=N2 (stereo not given) : > 10 µM

Measured TGI, OCC1OC(n2cnc3c(NCc4ccccc4O)ncnc32)C(O)C1O (stereo not given) : 7.7 µM

Measured TGI, CCOC(=O)C1=NNC(C(=O)c2ccccc2)C1c1ccccc1 (stereo not given) : 6.3 µM

Measured TGI, `NCCCNc1nc2ccccc2c2c(=O)c3cc(F)cc(Cl)c3sc12` : 2.9 µM

Measured TGI, Cc1cn(C2CC(O)C(COC(N)=O)O2)c(=O)[nH]c1=O (stereo not given) : > 100 µM

Measured TGI, `CCOC(=O)c1ccn2c(c1)c(C#N)c1nc3ccccc3nc12` : > 100 µM

Measured TGI, Cc1ccc(C2C3Cc4ccccc4C3=NN2c2ccc(S(=O)(=O)NC(=O)Nc3ccccc3)cc2)cc1 (stereo not given) : 36.5 µM

Measured TGI, `CC1(C)CN(CCNc2nccc(-c3c(-c4cccc(O)c4)nc4sccn34)n2)S(=O)(=O)N1` : > 33.2 µM

Measured TGI, `N#CCC(=O)Nc1ccccc1O` : > 100 µM

Measured TGI, `CCN1C/C(=C\c2ccc(Cl)cc2)c2[nH]c(=O)c(C#N)c(-c3ccc(Cl)cc3)c2C1` : > 100 µM

Measured TGI, `CCOC(=O)c1nc2cc(F)cc(F)c2[nH]c1=O` : > 100 µM

Measured TGI, CCC(C)C(=O)OC1CCC=C2C=CC(C)C(CCC3CC(O)CC(=O)O3)C21 (stereo not given) : > 65.9 µM

Measured TGI, O=C(CC1Sc2ccccc2NC1=O)NNc1ccc(F)cc1 (stereo not given) : > 100 µM

Measured TGI, `C[C@]12CC[C@H](O)CC1=CC[C@@H]1[C@@H]2CC[C@]2(C)NC(=O)/C(=C\c3ccccc3)C[C@@H]12` : 52 µM

Measured TGI, `COc1cc([C@@H]2c3cc4c(cc3[C@@H](NC(=O)NO)[C@H]3COC(=O)[C@H]23)OCO4)cc(OC)c1O` : > 100 µM

Measured TGI, `Nc1cc(N)c2nc(-c3ccccc3)c(NCc3ccc(Cl)c(Cl)c3)nc2c1` : 30.4 µM

Measured TGI, `CCOC(=O)CCSC1=CC(=O)c2nc3ccccc3c3ccnc1c23` : 39.3 µM

Measured TGI, O=C(NCc1ccccc1)C1C(=O)C(=O)N(Cc2ccccc2)C1=O (stereo not given) : > 100 µM

Measured TGI, `Oc1cccc2ccc(Br)nc12` : > 100 µM

Measured TGI, `O=C(OCc1ccccc1)n1cccc1` : > 100 µM

Measured TGI, `COc1cc2cnc3c4cc(OC)c(OC(C)C)cc4ccc3c2cc1OC` : > 100 µM

Measured TGI, COc1ccc(C2=NN(C(=O)c3ccc(Cl)cc3)C(O)(c3cc(F)c(Cl)cc3Cl)C2)cc1 (stereo not given) : > 100 µM

Measured TGI, `CC1(C)CC[C@]2(CO)CC[C@]3(C)C(=CC[C@@H]4[C@@]5(C)CCNCC(C)(C)[C@@H]5CC[C@]43C)[C@@H]2C1` : 15 µM

Measured TGI, CC(=O)OC(C)c1cc2c(s1)C(=O)c1ccsc1C2=O (stereo not given) : 0.978 µM
